Here's what we have: pKi numbers for UniProt P31652.
Sequence (P31652 whole entry): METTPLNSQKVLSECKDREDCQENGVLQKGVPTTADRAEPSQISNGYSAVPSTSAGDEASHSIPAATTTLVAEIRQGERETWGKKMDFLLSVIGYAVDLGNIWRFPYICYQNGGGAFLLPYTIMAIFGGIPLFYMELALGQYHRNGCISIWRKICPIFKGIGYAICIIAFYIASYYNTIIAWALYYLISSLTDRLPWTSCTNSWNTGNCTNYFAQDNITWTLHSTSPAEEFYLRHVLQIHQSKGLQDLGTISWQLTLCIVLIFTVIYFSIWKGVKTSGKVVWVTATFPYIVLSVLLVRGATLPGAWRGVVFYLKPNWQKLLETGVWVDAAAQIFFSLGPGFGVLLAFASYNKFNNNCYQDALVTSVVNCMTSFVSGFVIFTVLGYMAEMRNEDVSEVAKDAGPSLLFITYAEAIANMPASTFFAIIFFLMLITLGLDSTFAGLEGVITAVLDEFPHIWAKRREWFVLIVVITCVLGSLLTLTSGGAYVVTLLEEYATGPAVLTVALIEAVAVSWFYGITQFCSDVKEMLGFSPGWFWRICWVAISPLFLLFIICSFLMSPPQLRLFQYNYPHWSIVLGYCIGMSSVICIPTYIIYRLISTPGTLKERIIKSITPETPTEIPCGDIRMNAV
Lab note — pKi values are minus log10 of concentrations in M.

Observe how each entry below is paired with its result.
compound | system | measured_result
CNCc1cc(C(=O)N2CCCN(C3CC3)CC2)ccc1Oc1ccc(F)cc1Cl [Example 33] | UniProt P31652 | 7.55
O=C(c1ccc(CNC2CC2)c(Oc2cccnc2)c1)N1CCCN(C2CC2)CC1 [Example 40] | UniProt P31652 | 5.30
CNCc1cc(C(=O)N2CCCN(C3CC3)CC2)ccc1Sc1cc(C(F)(F)F)ccn1 [Example 47] | UniProt P31652 | 6.39
CNCc1cc(C(=O)N2CCCN(C3CC3)CC2)ccc1Sc1ccccn1 [Example 38] | UniProt P31652 | 5.30
CNCc1cc(C(=O)N2CCCN(C3CC3)CC2)ccc1Oc1ccccn1 [Example 39] | UniProt P31652 | 7.82

Task: Test system UniProt P31652; read-out pKi; what value for O=C(c1ccc(CN2CCCCC2)c(Oc2cccnc2)c1)N1CCCN(C2CC2)CC1 [Example 41] ?
Result: 5.00

Task: # query: pKi | item CNCc1cc(C(=O)N2CCCN(C3CC3)CC2)ccc1OCc1ccc(Cl)c(Cl)c1 [Example 42] | system: UniProt P31652
Result: 8.70

====

- system: cloned human H3 receptor, stably expressed in SK-N-MC cells (Homo sapiens, UniProt Q9Y5N1)
- Sequence (Q9Y5N1 whole entry): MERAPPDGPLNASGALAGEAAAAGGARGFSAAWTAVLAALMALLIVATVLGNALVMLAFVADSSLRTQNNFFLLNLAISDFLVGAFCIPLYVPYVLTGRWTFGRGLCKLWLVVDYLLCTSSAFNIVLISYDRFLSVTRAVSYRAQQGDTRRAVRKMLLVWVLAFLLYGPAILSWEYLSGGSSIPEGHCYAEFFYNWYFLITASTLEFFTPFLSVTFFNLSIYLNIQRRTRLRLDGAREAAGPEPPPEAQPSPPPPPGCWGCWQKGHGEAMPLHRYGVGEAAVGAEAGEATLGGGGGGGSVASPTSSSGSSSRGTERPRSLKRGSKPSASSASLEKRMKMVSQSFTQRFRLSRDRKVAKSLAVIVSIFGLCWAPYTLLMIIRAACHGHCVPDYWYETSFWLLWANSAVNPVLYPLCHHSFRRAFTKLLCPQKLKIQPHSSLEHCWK
pKi for assorted compounds
For clarity, pKi is expressed as the negative log10 of concentration in mol/L.

compound | measured_result
CNCc1cc(C(=O)N2CCCN(C3CC3)CC2)ccc1Sc1ccc(Cl)cc1 [Example 37] | 8.70
CNCc1cc(C(=O)N2CCCN(C3CC3)CC2)ccc1Oc1ccccn1 [Example 39] | 9.05
CNCc1cc(C(=O)N2CCCN(C3CCC3)CC2)ccc1Oc1ccc(Cl)c(Cl)c1 [Example 48] | 8.28
CC(C)N1CCCN(C(=O)c2ccc(CN3CCOC(CO)C3)c(Oc3ccccc3)c2)CC1 (stereo not shown) [Example 53] | 8.52
O=C(c1ccc(CNC2CC2)c(Oc2cccnc2)c1)N1CCCN(C2CC2)CC1 [Example 40] | 8.70
O=C(c1ccc(CN2CCCCC2)c(Oc2cccnc2)c1)N1CCCN(C2CC2)CC1 [Example 41] | 9.00
CNCc1cc(C(=O)N2CCCN(C3CC3)CC2)ccc1Sc1cc(C(F)(F)F)ccn1 [Example 47] | 8.40
CNCc1ccc(C(=O)N2CCCN(C3CC3)CC2)cc1Oc1ccc(Cl)c(Cl)c1 [Example 52] | 8.22

Task: Item: CNCc1cc(C(=O)N2CCCN(C3CC3)CC2)ccc1Oc1ccc(F)cc1Cl [Example 33] Test system: cloned human H3 receptor, stably expressed in SK-N-MC cells (Homo sapiens, UniProt Q9Y5N1) Read-out: pKi Value: ?
Result: 9.05

Task: Look up pKi with cloned human H3 receptor, stably expressed in SK-N-MC cells (Homo sapiens, UniProt Q9Y5N1) for this compound: Cc1ccc(Oc2ccc(C(=O)N3CCCN(C4CC4)CC3)cc2CN(C)C)cn1 [Example 36]
Result: 8.70

Source listed as patent US20080045508A1.
